# Test system: TDP-43 aggregation in PC12 cells stably expressing GFP-tagged mutant TDP-43 (TDP-43^Q33IK::eGFP)
# Test description: In vitro efficacy assay: inhibition of TDP-43 inclusions, concentration-response, fluorescence microscopy
# Assay type: cell-based
# Measurement parameters: Rattus norvegicus, PC-12, PC12 cells, 1 hour pre-treatment, 15 μM sodium arsenite for 23 hours, 10-point dose response curve
Measured property: IC50

Compound	IC50
CCN(C(=O)c1cc2cc(S(C)(=O)=O)ccc2[nH]1)[C@H]1CCC[C@@H](NCc2ccccc2)C1 [Compound 546]	100 to 500 nM

stdin: Given the entry CCN(C(=O)c1cc2ccccc2[nH]1)[C@H]1CCC[C@@H](NCc2cnn(C)c2)C1 [Compound 461] , report its measured IC50.
stdout: 500 to 2000 nM

stdin: Given the entry C#CCOc1ccc(CN[C@@H]2CCC[C@H](N(CC)C(=O)c3nc4cc([N+](=O)[O-])ccc4[nH]3)C2)cc1 [Compound 561] , report its measured IC50.
stdout: < 100 nM

stdin: Given the entry O=C(c1cc2ccccc2[nH]1)N(CC(F)(F)F)[C@H]1CCC[C@@H](NCc2ccncc2)C1 [Compound 177] , report its measured IC50.
stdout: 100 to 500 nM

stdin: Given the entry CCN(C(=O)c1cc2ccccc2[nH]1)[C@H]1CCC[C@@H](NCc2ccnc(O)c2)C1 [Compound 452] , report its measured IC50.
stdout: > 2000 nM

stdin: Given the entry CCN(C(=O)c1cc2ccccc2[nH]1)[C@H]1CCC[C@@H](NCc2cc(C(C)C)no2)C1 [Compound 471] , report its measured IC50.
stdout: < 100 nM

stdin: Given the entry CCN(C(=O)c1cc2ccccc2[nH]1)[C@H]1CCC[C@@H](N[C@H]2CCc3ccccc32)C1 [Compound 120] , report its measured IC50.
stdout: 500 to 2000 nM

stdin: Given the entry O=C(c1cc2ccccc2[nH]1)N(CC(F)(F)F)[C@H]1CCC[C@@H](NCc2ccccc2)C1 [Compound 179] , report its measured IC50.
stdout: < 100 nM

stdin: Given the entry C#CCOc1cccc(CN[C@@H]2CCC[C@H](N(CC)C(=O)c3nc4c(N=[N+]=[N-])cccc4[nH]3)C2)c1 [Compound 560] , report its measured IC50.
stdout: < 100 nM

stdin: Given the entry CCN(C(=O)c1nc2ccccc2[nH]1)[C@H]1CCC[C@@H](NCc2ccc3nccn3c2)C1 [Compound 474] , report its measured IC50.
stdout: 100 to 500 nM

stdin: Given the entry CCN(C(=O)c1nc2c(OC)cccc2[nH]1)[C@H]1CCC[C@@H](NCc2ccccc2)C1 [Compound 484] , report its measured IC50.
stdout: < 100 nM

stdin: Given the entry C#CCOc1ccc(CN[C@@H]2CCC[C@H](N(CC)C(=O)c3nc4c(N)cccc4[nH]3)C2)cc1 [Compound 567] , report its measured IC50.
stdout: < 100 nM

stdin: Given the entry C#CCCC1(CCOc2cccc(CN[C@@H]3CCC[C@H](N(CC)C(=O)c4cc5ccccc5[nH]4)C3)c2)N=N1 [Compound 426] , report its measured IC50.
stdout: < 100 nM

stdin: Given the entry C#Cc1ccc(C(=O)c2cccc(CN[C@@H]3CCC[C@H](N(CC)C(=O)c4cc5ccccc5[nH]4)C3)c2)cc1 [Compound 312] , report its measured IC50.
stdout: 500 to 2000 nM
